system: Human immunodeficiency virus 1; assay: Concentration required to protect CEM/0 cells against the cytopathicity of HIV-1 by 50%; assay type: functional, organism-based; settings: Human immunodeficiency virus 1, CCRF-CEM
pEC50: −log10 of the molar value.
Measure name: pEC50

compound="COC(=O)C(C)NP(=O)(OC[C@@H]1C=C[C@H](n2cc(C)c(=O)[nH]c2=O)O1)Oc1ccc(F)cc1 (stereo partly drawn)" measure_name=pEC50 experimental_result=7.28
compound="COC(=O)C(C)NP(=O)(OC[C@@H]1C=C[C@H](n2cc(C)c(=O)[nH]c2=O)O1)Oc1ccc(Cl)c(Cl)c1 (stereo partly drawn)" measure_name=pEC50 experimental_result=7.80
compound="COC(=O)C(C)NP(=O)(OC[C@@H]1C=C[C@H](n2cc(C)c(=O)[nH]c2=O)O1)Oc1cccc(C(F)(F)F)c1 (stereo partly drawn)" measure_name=pEC50 experimental_result=7.89
compound="COC(=O)C(C)NP(=O)(OC[C@@H]1C=C[C@H](n2cc(C)c(=O)[nH]c2=O)O1)Oc1ccc(OC)cc1 (stereo partly drawn)" measure_name=pEC50 experimental_result=7.24
compound="COC(=O)C(C)NP(=O)(OC[C@@H]1C=C[C@H](n2cc(C)c(=O)[nH]c2=O)O1)Oc1ccc(Cl)cc1 (stereo partly drawn)" measure_name=pEC50 experimental_result=8.30
compound="COC(=O)C(C)NP(=O)(OC[C@@H]1C=C[C@H](n2cc(C)c(=O)[nH]c2=O)O1)Oc1ccccc1 (stereo partly drawn)" measure_name=pEC50 experimental_result=7.12
compound="COC(=O)C(C)NP(=O)(OC[C@@H]1C=C[C@H](n2cc(C)c(=O)[nH]c2=O)O1)Oc1ccccc1Cl (stereo partly drawn)" measure_name=pEC50 experimental_result=7.74
compound="COC(=O)C(C)NP(=O)(OC[C@@H]1C=C[C@H](n2cc(C)c(=O)[nH]c2=O)O1)Oc1ccc(C(C)=O)cc1 (stereo partly drawn)" measure_name=pEC50 experimental_result=6.96

* * *

test system: Human immunodeficiency virus 1; experiment: Concentration required to protect CEM/0 cells against the cytopathicity of HIV-1 by 50%; format: functional, organism-based; conditions: Human immunodeficiency virus 1, CCRF-CEM
Just a reminder that ties go to 0.0: only EC50 strictly below 20 nM counts as 1.0.

compound="COC(=O)C(C)NP(=O)(OC[C@@H]1C=C[C@H](n2cc(C)c(=O)[nH]c2=O)O1)Oc1ccc(OC(F)(F)F)cc1 (stereo partly drawn)" class_name=1.0
compound="COC(=O)C(C)NP(=O)(OC[C@@H]1C=C[C@H](n2cc(C)c(=O)[nH]c2=O)O1)Oc1ccc(C(F)(F)F)cc1 (stereo partly drawn)" class_name=1.0
compound="COC(=O)C(C)NP(=O)(OC[C@@H]1C=C[C@H](n2cc(C)c(=O)[nH]c2=O)O1)Oc1cccc(F)c1 (stereo partly drawn)" class_name=1.0
compound=Cc1cn([C@H]2C=C[C@@H](CO)O2)c(=O)[nH]c1=O class_name=0.0
compound="COC(=O)c1ccc(OP(=O)(NC(C)C(=O)OC)OC[C@@H]2C=C[C@H](n3cc(C)c(=O)[nH]c3=O)O2)cc1 (stereo partly drawn)" class_name=0.0
compound="COC(=O)C(C)NP(=O)(OC[C@@H]1C=C[C@H](n2cc(C)c(=O)[nH]c2=O)O1)Oc1ccc(C)cc1 (stereo partly drawn)" class_name=0.0
compound="COC(=O)C(C)NP(=O)(OC[C@@H]1C=C[C@H](n2cc(C)c(=O)[nH]c2=O)O1)Oc1ccc([N+](=O)[O-])cc1 (stereo partly drawn)" class_name=0.0
compound="COC(=O)C(C)NP(=O)(OC[C@@H]1C=C[C@H](n2cc(C)c(=O)[nH]c2=O)O1)Oc1cccc(I)c1 (stereo partly drawn)" class_name=1.0

* * *

test system: CCRF-CEM; test: Cytostatic concentration required to inhibit CEM/0 cells proliferation by 50%; assay type: functional; conditions: Homo sapiens
Items are presented alongside their recorded CC50.
Measure name: CC50

compound="COC(=O)C(C)NP(=O)(OC[C@@H]1C=C[C@H](n2cc(C)c(=O)[nH]c2=O)O1)Oc1cccc(Br)c1 (stereo partly specified)" measure_name=CC50 experimental_result="13 µM"
compound="COC(=O)C(C)NP(=O)(OC[C@@H]1C=C[C@H](n2cc(C)c(=O)[nH]c2=O)O1)Oc1ccccc1Cl (stereo partly specified)" measure_name=CC50 experimental_result="47 µM"
compound="COC(=O)C(C)NP(=O)(OC[C@@H]1C=C[C@H](n2cc(C)c(=O)[nH]c2=O)O1)Oc1ccccc1 (stereo partly specified)" measure_name=CC50 experimental_result="> 100 µM"
compound="COC(=O)C(C)NP(=O)(OC[C@@H]1C=C[C@H](n2cc(C)c(=O)[nH]c2=O)O1)Oc1ccc(Br)cc1 (stereo partly specified) [STAMPIDINE]" measure_name=CC50 experimental_result="17 µM"
compound="COC(=O)C(C)NP(=O)(OC[C@@H]1C=C[C@H](n2cc(C)c(=O)[nH]c2=O)O1)Oc1ccc(C)cc1 (stereo partly specified)" measure_name=CC50 experimental_result="34 µM"
compound="COC(=O)C(C)NP(=O)(OC[C@@H]1C=C[C@H](n2cc(C)c(=O)[nH]c2=O)O1)Oc1ccc(C(F)(F)F)cc1 (stereo partly specified)" measure_name=CC50 experimental_result="13 µM"

* * *

assay: Partition coefficient (logD7.0); assay type: physicochemical; settings: octanol/water, pH 7
Items are presented alongside their recorded logD.
Measure name: logD

compound="COC(=O)C(C)NP(=O)(OC[C@@H]1C=C[C@H](n2cc(C)c(=O)[nH]c2=O)O1)Oc1ccc(C)cc1 (some centres undefined)" experimental_result=1.19
compound="COC(=O)C(C)NP(=O)(OC[C@@H]1C=C[C@H](n2cc(C)c(=O)[nH]c2=O)O1)Oc1cccc(Br)c1 (some centres undefined)" experimental_result=1.64
compound="COC(=O)C(C)NP(=O)(OC[C@@H]1C=C[C@H](n2cc(C)c(=O)[nH]c2=O)O1)Oc1ccc(I)cc1 (some centres undefined)" experimental_result=1.93
compound="COC(=O)C(C)NP(=O)(OC[C@@H]1C=C[C@H](n2cc(C)c(=O)[nH]c2=O)O1)Oc1ccc(OC)cc1 (some centres undefined)" experimental_result=1.09

* * *

tested on: Human immunodeficiency virus 1; assay: Concentration required to protect CEM/0 cells against the cytopathicity of HIV-1 by 50%; format: functional, organism-based; conditions: Human immunodeficiency virus 1, CCRF-CEM
Just a reminder that ties go to no: only EC50 strictly below 20 nM counts as yes.

compound="COC(=O)C(C)NP(=O)(OC[C@@H]1C=C[C@H](n2cc(C)c(=O)[nH]c2=O)O1)Oc1ccc(C#N)cc1 (stereo partly specified)" class_name=no
compound="COC(=O)C(C)NP(=O)(OC[C@@H]1C=C[C@H](n2cc(C)c(=O)[nH]c2=O)O1)Oc1cccc(Br)c1 (stereo partly specified)" class_name=yes
compound="COC(=O)C(C)NP(=O)(OC[C@@H]1C=C[C@H](n2cc(C)c(=O)[nH]c2=O)O1)Oc1ccc(Br)cc1 (stereo partly specified)" class_name=yes
compound="COC(=O)C(C)NP(=O)(OC[C@@H]1C=C[C@H](n2cc(C)c(=O)[nH]c2=O)O1)Oc1cccc(Cl)c1 (stereo partly specified)" class_name=no
compound="COC(=O)C(C)NP(=O)(OC[C@@H]1C=C[C@H](n2cc(C)c(=O)[nH]c2=O)O1)Oc1cccc(C(C)=O)c1 (stereo partly specified)" class_name=no
compound="COC(=O)C(C)NP(=O)(OC[C@@H]1C=C[C@H](n2cc(C)c(=O)[nH]c2=O)O1)Oc1ccc(I)cc1 (stereo partly specified)" class_name=yes

* * *

test system: Human immunodeficiency virus 2; assay: Concentration required to protect CEM/0 cells against the cytopathicity of HIV-2 by 50%; settings: Human immunodeficiency virus 2, CCRF-CEM
pEC50: −log10 of the molar value.
Items are presented alongside their recorded pEC50.
Measure name: pEC50

compound="COC(=O)C(C)NP(=O)(OC[C@@H]1C=C[C@H](n2cc(C)c(=O)[nH]c2=O)O1)Oc1cccc(Br)c1 (some centres undefined)" experimental_result=7.80
compound="COC(=O)C(C)NP(=O)(OC[C@@H]1C=C[C@H](n2cc(C)c(=O)[nH]c2=O)O1)Oc1ccc(C#N)cc1 (some centres undefined)" experimental_result=6.89
compound="COC(=O)C(C)NP(=O)(OC[C@@H]1C=C[C@H](n2cc(C)c(=O)[nH]c2=O)O1)Oc1cccc(Cl)c1 (some centres undefined)" experimental_result=7.24
compound="COC(=O)C(C)NP(=O)(OC[C@@H]1C=C[C@H](n2cc(C)c(=O)[nH]c2=O)O1)Oc1cccc(I)c1 (some centres undefined)" experimental_result=8.15

* * *

tested on: CCRF-CEM; test: Cytostatic concentration required to inhibit CEM/0 cells proliferation by 50%; assay type: functional; conditions: Homo sapiens
Measure name: CC50

molecule="COC(=O)c1ccc(OP(=O)(NC(C)C(=O)OC)OC[C@@H]2C=C[C@H](n3cc(C)c(=O)[nH]c3=O)O2)cc1 (stereo not given in full)" experimental_result="31 µM"
molecule="COC(=O)C(C)NP(=O)(OC[C@@H]1C=C[C@H](n2cc(C)c(=O)[nH]c2=O)O1)Oc1cccc(I)c1 (stereo not given in full)" experimental_result="25 µM"
molecule="COC(=O)C(C)NP(=O)(OC[C@@H]1C=C[C@H](n2cc(C)c(=O)[nH]c2=O)O1)Oc1ccc(C(C)=O)cc1 (stereo not given in full)" experimental_result="40 µM"
molecule="COC(=O)C(C)NP(=O)(OC[C@@H]1C=C[C@H](n2cc(C)c(=O)[nH]c2=O)O1)Oc1ccc(F)cc1 (stereo not given in full)" experimental_result="26 µM"
molecule="COC(=O)C(C)NP(=O)(OC[C@@H]1C=C[C@H](n2cc(C)c(=O)[nH]c2=O)O1)Oc1cccc(C(F)(F)F)c1 (stereo not given in full)" experimental_result="14 µM"
molecule="COC(=O)C(C)NP(=O)(OC[C@@H]1C=C[C@H](n2cc(C)c(=O)[nH]c2=O)O1)Oc1ccc(Cl)c(Cl)c1 (stereo not given in full)" experimental_result="21 µM"
molecule="COC(=O)C(C)NP(=O)(OC[C@@H]1C=C[C@H](n2cc(C)c(=O)[nH]c2=O)O1)Oc1ccc(I)cc1 (stereo not given in full)" experimental_result="15 µM"
molecule="COC(=O)C(C)NP(=O)(OC[C@@H]1C=C[C@H](n2cc(C)c(=O)[nH]c2=O)O1)Oc1ccc(OC)cc1 (stereo not given in full)" experimental_result="35 µM"
molecule="COC(=O)C(C)NP(=O)(OC[C@@H]1C=C[C@H](n2cc(C)c(=O)[nH]c2=O)O1)Oc1ccc(OC(F)(F)F)cc1 (stereo not given in full)" experimental_result="34 µM"
molecule="COC(=O)C(C)NP(=O)(OC[C@@H]1C=C[C@H](n2cc(C)c(=O)[nH]c2=O)O1)Oc1ccc([N+](=O)[O-])cc1 (stereo not given in full)" experimental_result="73 µM"
molecule="COC(=O)C(C)NP(=O)(OC[C@@H]1C=C[C@H](n2cc(C)c(=O)[nH]c2=O)O1)Oc1ccc(Cl)cc1 (stereo not given in full)" experimental_result="11 µM"
molecule="COC(=O)C(C)NP(=O)(OC[C@@H]1C=C[C@H](n2cc(C)c(=O)[nH]c2=O)O1)Oc1ccc(C#N)cc1 (stereo not given in full)" experimental_result="60 µM"
molecule="COC(=O)C(C)NP(=O)(OC[C@@H]1C=C[C@H](n2cc(C)c(=O)[nH]c2=O)O1)Oc1cccc(C(C)=O)c1 (stereo not given in full)" experimental_result="50 µM"
molecule="COC(=O)C(C)NP(=O)(OC[C@@H]1C=C[C@H](n2cc(C)c(=O)[nH]c2=O)O1)Oc1cccc(F)c1 (stereo not given in full)" experimental_result="30 µM"
molecule="COC(=O)C(C)NP(=O)(OC[C@@H]1C=C[C@H](n2cc(C)c(=O)[nH]c2=O)O1)Oc1cccc(Cl)c1 (stereo not given in full)" experimental_result="26 µM"
